tested on: Escherichia coli; test: Antibacterial activity against extended-spectrum beta-lactamase producing Escherichia coli 14-1 after 18 to 24 hrs by two-fold serial dilution method; assay type: functional
Measured Parameter: MIC (µg/mL)
Give bare numbers, in µg/mL.

{"columns": ["Compound", "Measured Parameter", "Value Observed"],
 "data": [
  ["CCO/N=C1/CN(c2c(F)cc3c(=O)c(C(=O)O)cn([C@@H]4C[C@@H]4F)c3c2OC)CC1CNC1CC1 (stereo partly drawn)", "MIC", 4],
  ["CO/N=C1/CN(c2nc3c(cc2F)c(=O)c(C(=O)O)cn3-c2nc(N)c(F)cc2F)CC1CNC1CC1 (stereo not drawn)", "MIC", 16],
  ["CO/N=C1/CN(c2nc3c(cc2F)c(=O)c(C(=O)O)cn3C2CC2)CC1CNC1CC1 (stereo not drawn)", "MIC", 16],
  ["C[C@H]1COc2c(N3C/C(=N/OCc4ccccc4)C(CNC4CC4)C3)c(F)cc3c(=O)c(C(=O)O)cn1c23 (stereo partly drawn)", "MIC", 2],
  ["CC1(CNC2CC2)CN(c2nc3c(cc2F)c(=O)c(C(=O)O)cn3C2CC2)C/C1=N/OCc1ccccc1 (stereo not drawn)", "MIC", 32]
]}

For each entry beneath this line, provide reported MIC.
1. CCO/N=C1/CN(c2c(F)cc3c(=O)c(C(=O)O)cn4c3c2OC[C@@H]4C)CC1(C)CNC1CC1 (stereo partly drawn)
2. CO/N=C1/CN(c2c(F)cc3c(=O)c(C(=O)O)cn4c3c2OC[C@@H]4CF)CC1(C)CNC1CC1 (stereo partly drawn)
3. CCO/N=C1/CN(c2nc3c(cc2F)c(=O)c(C(=O)O)cn3C2CC2)CC1CNC1CC1 (stereo not drawn)

(A)
1: 8; 2: 8; 3: 8

====

Could you please report measured MIC for the items listed next?
test system: Klebsiella pneumoniae; assay: Antibacterial activity against Klebsiella pneumoniae 14-3 after 18 to 24 hrs by two-fold serial dilution method; type: functional
Answers are plain numbers, in µg/mL.

{"columns": ["Molecule", "MIC, µg/mL"],
 "data": [
  ["CCO/N=C1/CN(c2nc3c(cc2F)c(=O)c(C(=O)O)cn3[C@@H]2C[C@@H]2F)CC1(C)CNC1CC1 (some centres not stated)", 128],
  ["C[C@H]1COc2c(N3CCN(C)CC3)c(F)cc3c(=O)c(C(=O)O)cn1c23.C[C@H]1COc2c(N3CCN(C)CC3)c(F)cc3c(=O)c(C(=O)O)cn1c23.O [LEVOFLOXACIN]", 32],
  ["CC1(CNC2CC2)CN(c2nc3c(cc2F)c(=O)c(C(=O)O)cn3-c2nc(N)c(F)cc2F)C/C1=N/OCc1ccccc1 (configuration not stated)", 128],
  ["CCO/N=C1/CN(c2nc3c(cc2F)c(=O)c(C(=O)O)cn3-c2nc(N)c(F)cc2F)CC1CNC1CC1 (configuration not stated)", 128]
]}

Moving on to another molecule below.
(Q) Given the molecule CCO/N=C1/CN(c2nc3c(cc2F)c(=O)c(C(=O)O)cn3[C@@H]2C[C@@H]2F)CC1CNC1CC1 (some centres not stated) , write its reported MIC.
(A) 128

====

system: Klebsiella pneumoniae; assay: Antibacterial activity against Klebsiella pneumoniae 14-4 after 18 to 24 hrs by two-fold serial dilution method; assay type: functional
Measured Parameter: MIC

Record MIC per entry; entries follow.
1. CC1(CNC2CC2)CN(c2nc3c(cc2F)c(=O)c(C(=O)O)cn3[C@@H]2C[C@@H]2F)C/C1=N/OCc1ccccc1 (stereo partly drawn)
2. CO/N=C1/CN(c2nc3c(cc2F)c(=O)c(C(=O)O)cn3[C@@H]2C[C@@H]2F)CC1(C)CNC1CC1 (stereo partly drawn)
3. CCO/N=C1/CN(c2nc3c(cc2F)c(=O)c(C(=O)O)cn3-c2nc(N)c(F)cc2F)CC1(C)CNC1CC1 (stereo not drawn)
4. C[C@H]1COc2c(N3C/C(=N/OCc4ccccc4)C(CNC4CC4)C3)c(F)cc3c(=O)c(C(=O)O)cn1c23 (stereo partly drawn)
5. CO/N=C1/CN(c2c(F)cc3c(=O)c(C(=O)O)cn4c3c2OC[C@@H]4CF)CC1(C)CNC1CC1 (stereo partly drawn)
6. O=C(O)c1cn([C@@H]2C[C@@H]2F)c2nc(N3C/C(=N/OCc4ccccc4)C(CNC4CC4)C3)c(F)cc2c1=O (stereo partly drawn)
7. CCO/N=C1/CN(c2nc3c(cc2F)c(=O)c(C(=O)O)cn3-c2nc(N)c(F)cc2F)CC1CNC1CC1 (stereo not drawn)

(A)
1: > 64 µg/mL; 2: > 128 µg/mL; 3: > 128 µg/mL; 4: 64 µg/mL; 5: 128 µg/mL; 6: > 128 µg/mL; 7: > 128 µg/mL

Consider the following items and state reported MIC for each.
1. CO/N=C1/CN(c2c(F)cc3c(=O)c(C(=O)O)cn4c3c2OC[C@@H]4C)CC1(C)CNC1CC1 (stereo partly drawn)
2. CO/N=C1/CN(c2nc3c(cc2F)c(=O)c(C(=O)O)cn3C2CC2)CC1CNC1CC1 (stereo not drawn)
3. CO/N=C1/CN(c2nc3c(cc2F)c(=O)c(C(=O)O)cn3-c2nc(N)c(F)cc2F)CC1(C)CNC1CC1 (stereo not drawn)
4. CO/N=C1/CN(c2nc3c(cc2F)c(=O)c(C(=O)O)cn3C2CC2)CC1(C)CNC1CC1 (stereo not drawn)

(A)
> 128 µg/mL
> 128 µg/mL
> 128 µg/mL
> 128 µg/mL

List reported MIC for each of these molecules:
1. CO/N=C1/CN(c2c(F)cc3c(=O)c(C(=O)O)cn(C4CC4)c3c2OC)CC1CNC1CC1 (stereo not drawn)
2. CO/N=C1/CN(c2nc3c(cc2F)c(=O)c(C(=O)O)cn3[C@@H]2C[C@@H]2F)CC1CNC1CC1 (stereo partly drawn)

(A)
1: > 128 µg/mL; 2: > 128 µg/mL

====

tested on: Escherichia coli; test: Antibacterial activity against Escherichia coli ATCC 25922 after 18 to 24 hrs by two-fold serial dilution method; type: functional
What MIC was measured for each of the following?
Give bare numbers, in µg/mL.

Below: 4 compounds and their reported MIC.
{"columns": ["Compound", "Target System", "MIC, µg/mL"],
 "data": [
  ["CCO/N=C1/CN(c2c(F)cc3c(=O)c(C(=O)O)cn4c3c2OC[C@@H]4C)CC1(C)CNC1CC1 (stereo partly specified)", "Escherichia coli", 2],
  ["O=C(O)c1cn2c3c(c(N4C/C(=N/OCc5ccccc5)C(CNC5CC5)C4)c(F)cc3c1=O)OC[C@@H]2CF (stereo partly specified)", "Escherichia coli", 1],
  ["CCO/N=C1/CN(c2nc3c(cc2F)c(=O)c(C(=O)O)cn3-c2nc(N)c(F)cc2F)CC1CNC1CC1 (stereo unspecified)", "Escherichia coli", 4],
  ["C[C@H]1COc2c(N3CCN(C)CC3)c(F)cc3c(=O)c(C(=O)O)cn1c23.C[C@H]1COc2c(N3CCN(C)CC3)c(F)cc3c(=O)c(C(=O)O)cn1c23.O", "Escherichia coli", 0.125]
]}

(Q) Specify measured MIC for CC1(CNC2CC2)CN(c2nc3c(cc2F)c(=O)c(C(=O)O)cn3-c2nc(N)c(F)cc2F)C/C1=N/OCc1ccccc1 (stereo unspecified) .
(A) 64

====

Field: MIC. Provide a value for each of the compounds that follow.
test system: Klebsiella pneumoniae; assay: Antibacterial activity against extended-spectrum beta-lactamase producing Klebsiella pneumoniae 14-19 after 18 to 24 hrs by two-fold serial dilution method; type: functional

{"columns": ["Compound", "Target System", "MIC"],
 "data": [
  ["CCO/N=C1/CN(c2c(F)cc3c(=O)c(C(=O)O)cn([C@@H]4C[C@@H]4F)c3c2OC)CC1CNC1CC1 (some centres not stated)", "Klebsiella pneumoniae", "> 32 µg/mL"],
  ["CC1(CNC2CC2)CN(c2nc3c(cc2F)c(=O)c(C(=O)O)cn3[C@@H]2C[C@@H]2F)C/C1=N/OCc1ccccc1 (some centres not stated)", "Klebsiella pneumoniae", "> 64 µg/mL"],
  ["CO/N=C1/CN(c2nc3c(cc2F)c(=O)c(C(=O)O)cn3-c2nc(N)c(F)cc2F)CC1(C)CNC1CC1 (configuration not stated)", "Klebsiella pneumoniae", "> 128 µg/mL"],
  ["CC1(CNC2CC2)CN(c2nc3c(cc2F)c(=O)c(C(=O)O)cn3-c2nc(N)c(F)cc2F)C/C1=N/OCc1ccccc1 (configuration not stated)", "Klebsiella pneumoniae", "> 128 µg/mL"],
  ["CCO/N=C1/CN(c2nc3c(cc2F)c(=O)c(C(=O)O)cn3-c2nc(N)c(F)cc2F)CC1(C)CNC1CC1 (configuration not stated)", "Klebsiella pneumoniae", "> 128 µg/mL"]
]}

Take each entry in turn and give its MIC.
1. CO/N=C1/CN(c2c(F)cc3c(=O)c(C(=O)O)cn4c3c2OC[C@@H]4CF)CC1(C)CNC1CC1 (some centres not stated)
2. CO/N=C1/CN(c2c(F)cc3c(=O)c(C(=O)O)cn(C4CC4)c3c2OC)CC1CNC1CC1 (configuration not stated)

(A)
1: > 128 µg/mL; 2: > 128 µg/mL

meta.source: ChEMBL document CHEMBL3734675
